- RUN DESCRIPTION: Plasma pharmacokinetics of ARRY-520
- Assay type: in vivo, human
- STATED CONDITIONS: human, plasma, intravenous, t1/2, Schedule 2, Cycle 1 Day 1, Schedule Total (N=18); median (min-max)
MEASUREMENT KIND: half-life (h)

molecule=CON(C)C(=O)N1N=C(c2cc(F)ccc2F)S[C@@]1(CCCN)c1ccccc1 reported_value=26.1

====

- RUN DESCRIPTION: Plasma pharmacokinetics of ARRY-520
- Format: in vivo, human
- STATED CONDITIONS: human, plasma, intravenous, 1.2 mg/m^2, MRT, Schedule 2, Cycle 1 Day 5, 1.2 mg/m^2 (N=6); median (min-max)
MEASUREMENT KIND: MRT (h)

molecule=CON(C)C(=O)N1N=C(c2cc(F)ccc2F)S[C@@]1(CCCN)c1ccccc1 measurement_unit=h reported_value=134

====

- RUN DESCRIPTION: Plasma pharmacokinetics of ARRY-520
- Assay type: in vivo, human
- STATED CONDITIONS: human, plasma, intravenous, 3.75 mg/m^2, t1/2, Schedule 1, Cycle 1 Day 1, 3.75 mg/m^2 (N=1); median (min-max)
MEASUREMENT KIND: half-life (h)

molecule="CON(C)C(=O)N1N=C(c2cc(F)ccc2F)S[C@@]1(CCCN)c1ccccc1 [ARRY-520]" measurement_kind=half-life measurement_unit=h reported_value=100

====

- RUN DESCRIPTION: Plasma pharmacokinetics of ARRY-520
- Assay type: in vivo, human
- STATED CONDITIONS: human, plasma, intravenous, 2.5 mg/m^2
MEASUREMENT KIND: AUC(0-inf)

molecule=CON(C)C(=O)N1N=C(c2cc(F)ccc2F)S[C@@]1(CCCN)c1ccccc1 reported_value="1650 ng·h/mL"

====

- RUN DESCRIPTION: Plasma pharmacokinetics of ARRY-520
- Format: in vivo, human
- STATED CONDITIONS: human, plasma, intravenous, Tmax, Schedule 1, Cycle 1 Day 1, Schedule Total (N=10); median (min-max)
MEASUREMENT KIND: Tmax (h)

molecule=CON(C)C(=O)N1N=C(c2cc(F)ccc2F)S[C@@]1(CCCN)c1ccccc1 measurement_kind=Tmax reported_value=1

====

- RUN DESCRIPTION: Plasma pharmacokinetics of ARRY-520
- Type: in vivo, human
- STATED CONDITIONS: human, plasma, intravenous, 1.8 mg/m^2, t1/2, Schedule 2, Cycle 1 Day 1, 1.8 mg/m^2 (N=2); median (min-max)
MEASUREMENT KIND: half-life

molecule=CON(C)C(=O)N1N=C(c2cc(F)ccc2F)S[C@@]1(CCCN)c1ccccc1 measurement_kind=half-life reported_value="27.1 h"

====

- RUN DESCRIPTION: Plasma pharmacokinetics of ARRY-520
- Type: in vivo, human
- STATED CONDITIONS: human, plasma, intravenous, 2.5 mg/m^2, Vss, Schedule 1, Cycle 1 Day 1, 2.5 mg/m^2 (N=3); mean (%CV)
MEASUREMENT KIND: Vd (L)

compound="CON(C)C(=O)N1N=C(c2cc(F)ccc2F)S[C@@]1(CCCN)c1ccccc1 [ARRY-520]" reported_value=405

====

- RUN DESCRIPTION: Plasma pharmacokinetics of ARRY-520
- Type: in vivo, human
- STATED CONDITIONS: human, plasma, intravenous, 1.2 mg/m^2, Tmax, Schedule 2, Cycle 1 Day 1, 1.2 mg/m^2 (N=6); median (min-max)
MEASUREMENT KIND: Tmax (h)

molecule=CON(C)C(=O)N1N=C(c2cc(F)ccc2F)S[C@@]1(CCCN)c1ccccc1 measurement_kind=Tmax reported_value=1.09

====

- RUN DESCRIPTION: Plasma pharmacokinetics of ARRY-520
- Type: in vivo, human
- STATED CONDITIONS: human, plasma, intravenous, 1.5 mg/m^2, CL, Schedule 2, Cycle 1 Day 1, 1.5 mg/m^2 (N=6); geometric mean (geometric %CV)
MEASUREMENT KIND: clearance (mL/min)

molecule=CON(C)C(=O)N1N=C(c2cc(F)ccc2F)S[C@@]1(CCCN)c1ccccc1 measurement_unit=mL/min reported_value=98.3

====

- RUN DESCRIPTION: Plasma pharmacokinetics of ARRY-520
- Assay type: in vivo, human
- STATED CONDITIONS: human, plasma, intravenous, 5.6 mg/m^2, Cmax, Schedule 1, Cycle 1 Day 1, 5.6 mg/m^2 (N=2); geometric mean
MEASUREMENT KIND: Cmax (µg/mL)

molecule=CON(C)C(=O)N1N=C(c2cc(F)ccc2F)S[C@@]1(CCCN)c1ccccc1 measurement_unit=µg/mL reported_value=0.0496

====

- RUN DESCRIPTION: Plasma pharmacokinetics of ARRY-520
- Format: in vivo, human
- STATED CONDITIONS: human, plasma, intravenous, 1.2 mg/m^2, AUC0–24, Schedule 2, Cycle 1 Day 1, 1.2 mg/m^2 (N=6); geometric mean (geometric %CV)
MEASUREMENT KIND: AUC(0-t)

molecule=CON(C)C(=O)N1N=C(c2cc(F)ccc2F)S[C@@]1(CCCN)c1ccccc1 reported_value="133 ng·h/mL"

====

- RUN DESCRIPTION: Plasma pharmacokinetics of ARRY-520
- Assay type: in vivo, human
- STATED CONDITIONS: human, plasma, intravenous, 3.6 mg/m^2, t1/2, Schedule 2, Cycle 1 Day 1, 3.6 mg/m^2 (N=1); median (min-max)
MEASUREMENT KIND: half-life (h)

molecule=CON(C)C(=O)N1N=C(c2cc(F)ccc2F)S[C@@]1(CCCN)c1ccccc1 reported_value=18.7

====

- RUN DESCRIPTION: Plasma pharmacokinetics of ARRY-520
- Type: in vivo, human
- STATED CONDITIONS: human, plasma, intravenous, 3.6 mg/m^2, Tmax, Schedule 2, Cycle 1 Day 1, 3.6 mg/m^2 (N=1); median (min-max)
MEASUREMENT KIND: Tmax (h)

molecule="CON(C)C(=O)N1N=C(c2cc(F)ccc2F)S[C@@]1(CCCN)c1ccccc1 [ARRY-520]" measurement_kind=Tmax measurement_unit=h reported_value=1

====

- RUN DESCRIPTION: Plasma pharmacokinetics of ARRY-520
- Type: in vivo, human
- STATED CONDITIONS: human, plasma, intravenous, Tmax, Schedule 2, Cycle 1 Day 5, Schedule Total (N=18); median (min-max)
MEASUREMENT KIND: Tmax (h)

molecule=CON(C)C(=O)N1N=C(c2cc(F)ccc2F)S[C@@]1(CCCN)c1ccccc1 measurement_kind=Tmax measurement_unit=h reported_value=1

====

- RUN DESCRIPTION: Plasma pharmacokinetics of ARRY-520
- Assay type: in vivo, human
- STATED CONDITIONS: human, plasma, intravenous, 3.6 mg/m^2, CL, Schedule 2, Cycle 1 Day 1, 3.6 mg/m^2 (N=1); geometric mean
MEASUREMENT KIND: clearance (mL/min)

molecule=CON(C)C(=O)N1N=C(c2cc(F)ccc2F)S[C@@]1(CCCN)c1ccccc1 reported_value=187

====

- RUN DESCRIPTION: Plasma pharmacokinetics of ARRY-520
- Type: in vivo, human
- STATED CONDITIONS: human, plasma, intravenous, 3.6 mg/m^2, Cmax, Schedule 2, Cycle 1 Day 1, 3.6 mg/m^2 (N=1); geometric mean
MEASUREMENT KIND: Cmax (ng/mL)

molecule=CON(C)C(=O)N1N=C(c2cc(F)ccc2F)S[C@@]1(CCCN)c1ccccc1 measurement_unit=ng/mL reported_value=73.9

====

- RUN DESCRIPTION: Plasma pharmacokinetics of ARRY-520
- Format: in vivo, human
- STATED CONDITIONS: human, plasma, intravenous, 1.8 mg/m^2, MRT, Schedule 2, Cycle 1 Day 5, 1.8 mg/m^2 (N=2); median (min-max)
MEASUREMENT KIND: MRT (h)

molecule="CON(C)C(=O)N1N=C(c2cc(F)ccc2F)S[C@@]1(CCCN)c1ccccc1 [ARRY-520]" measurement_kind=MRT measurement_unit=h reported_value=114

====

- RUN DESCRIPTION: Plasma pharmacokinetics of ARRY-520
- Format: in vivo, human
- STATED CONDITIONS: human, plasma, intravenous, 0.8 mg/m^2, CL, Schedule 2, Cycle 1 Day 1, 0.8 mg/m^2 (N=3); geometric mean (geometric %CV)
MEASUREMENT KIND: clearance (mL/min)

molecule=CON(C)C(=O)N1N=C(c2cc(F)ccc2F)S[C@@]1(CCCN)c1ccccc1 reported_value=109

====

- RUN DESCRIPTION: Plasma pharmacokinetics of ARRY-520
- Assay type: in vivo, human
- STATED CONDITIONS: human, plasma, intravenous, 0.8 mg/m^2, Vss, Schedule 2, Cycle 1 Day 1, 0.8 mg/m^2 (N=3); mean (%CV)
MEASUREMENT KIND: Vd (L)

molecule=CON(C)C(=O)N1N=C(c2cc(F)ccc2F)S[C@@]1(CCCN)c1ccccc1 measurement_unit=L reported_value=295
